System: MCF7 (ADR)
assay name: MTT cytotoxicity assay, MCF7 (ADR)
Assay type: cell-based, human
test context: Homo sapiens, NCI/ADR-RES, 72 h, read-out: IC50 Value
Method: The relative cytotoxicity of various compounds on tumor cell lines was investigated as follows. Cytotoxicity was measured by the MTT microculture tetrazolium colorimetric assay for all cell lines. […] The cells were plated (number of cells/well was different from cell line to cell depending on the dividing rate) in a 96-well microculture plate 24 hours prior to the delivery of the vanadium compounds. […] The absorbance of each well was read with a Titertek Multiskan (310C) spectrophotometer at 570 nm. […]
measured attribute: IC50 (µM)
Field format: number, assumed µM, no unit text.

IN: Tell me reported IC50 for COc1cccc2c1C(=O)c1c(O)c3c(c(O)c1C2=O)C[C@@](O)(C(=O)CO)C[C@@H]3O[C@H]1C[C@H](N)[C@H](O)[C@H](C)O1 [doxorubicin, reference compound] , tested with MCF7 (ADR).
OUT: 25.7
